# reported IC50; entries follow
EXPERIMENTAL_TARGET: Brd4 bromodomain 1 (BRD4(1)) (Homo sapiens)
TEST_SUMMARY: Inhibition of tetra-acetylated histone H4 binding to Brd4 bromodomain 1 (TR-FRET)
STUDY_CONDITIONS: tetra-acetylated histone H4 peptide, first bromodomain of Brd4

SMILES_CODE | VAL
Cc1cnn(C)c1-c1cc(N)c2nc(C)n(Cc3ccccc3)c2c1 | 300 to 3000 nM
Cc1noc(C)c1-c1cnc2nc(NCC(C)(C)O)n(Cc3ccccc3)c2c1 | ≤ 300 nM

Sample Cc1noc(C)c1-c1cc(Br)c2nc(C)n(Cc3ccccc3)c2c1 , system: Brd4 bromodomain 1 (BRD4(1)) (Homo sapiens). Its IC50 is ≤ 300 nM

Sample Cc1noc(C)c1-c1cnc2nc(NCc3cccc(C#N)c3)n(Cc3ccccc3)c2c1 , system: Brd4 bromodomain 1 (BRD4(1)) (Homo sapiens). Its IC50 is ≤ 300 nM

Sample Cc1noc(C)c1-c1cc(N)c2ccn(Cc3ccc(F)cc3)c2n1 , system: Brd4 bromodomain 1 (BRD4(1)) (Homo sapiens). Its IC50 is 300 to 3000 nM

Sample Cc1ccc(Cn2c(C)nc3ncc(-c4c(C)noc4C)cc32)s1 , system: Brd4 bromodomain 1 (BRD4(1)) (Homo sapiens). Its IC50 is 300 to 3000 nM

Sample Cc1noc(C)c1-c1cc(N)c2[nH]c(=O)n(CC3CC3)c2c1 , system: Brd4 bromodomain 1 (BRD4(1)) (Homo sapiens). Its IC50 is ≤ 300 nM

Sample Cc1noc(C)c1-c1cc([N+](=O)[O-])c2[nH]c(=O)n(Cc3ccccc3)c2c1 , system: Brd4 bromodomain 1 (BRD4(1)) (Homo sapiens). Its IC50 is ≤ 300 nM

Sample Cc1noc(C)c1-c1ccc2c(c1)N(Cc1ccccc1)C(=O)NC2 , system: Brd4 bromodomain 1 (BRD4(1)) (Homo sapiens). Its IC50 is ≤ 300 nM

Sample CNC(=O)c1nc2ncc(-c3c(C)noc3C)cc2n1Cc1ccccc1 , system: Brd4 bromodomain 1 (BRD4(1)) (Homo sapiens). Its IC50 is ≤ 300 nM

Sample Cc1noc(C)c1-c1cnc2nc(C)n(Cc3ccc(Cl)c(Cl)c3)c2c1 , system: Brd4 bromodomain 1 (BRD4(1)) (Homo sapiens). Its IC50 is ≤ 300 nM

---

# reported IC50; entries follow
Tested on: hIL-6 mRNA
TEST_SUMMARY: Inhibition of hIL-6 mRNA transcription in LPS-stimulated U937 cells
Assay type: cell-based
STUDY_CONDITIONS: Homo sapiens, U-937; PMA-differentiated U937 cells, 1 h pretreatment, 1 ug/mL LPS stimulation, 3 h; read-out: IL-6 activity (Inhibition of hIL-6 mRNA Transcription)

SMILES_CODE | IC50
CCNc1nc2c([N+](=O)[O-])cc(-c3c(C)noc3C)cc2n1Cc1ccccc1 | 300 to 3000 nM
Cc1noc(C)c1-c1cnc2nc(C)n(Cc3ccc(Cl)cc3Cl)c2c1 | 300 to 3000 nM
Cc1noc(C)c1-c1cc(N)c2nc(C)n(CC3CCC3)c2c1 | ≤ 300 nM
Cc1noc(C)c1-c1cnc2nc(NCc3cccc(C#N)c3)n(Cc3ccccc3)c2c1 | ≤ 300 nM
Cc1noc(C)c1-c1cnc2c(c1)ncn2Cc1ccccc1 | 300 to 3000 nM
CNc1nc2ncc(-c3c(C)noc3C)cc2n1Cc1ccccc1 | ≤ 300 nM
CCNc1nc2c(N)cc(-c3c(C)noc3C)cc2n1Cc1ccccc1 | ≤ 300 nM
Cc1noc(C)c1-c1cnc2c(c1)ncn2Cc1ccc(C(F)(F)F)cc1 | 3000 to 30000 nM

Kindly note the recorded IC50 for Cc1noc(C)c1-c1cc(C#N)c2nc(C)n(Cc3ccccc3)c2c1 , which is 300 to 3000 nM

Kindly note the recorded IC50 for Cc1noc(C)c1-c1cc([N+](=O)[O-])c2[nH]c(=O)n(Cc3ccc(Cl)cc3)c2c1 , which is 300 to 3000 nM

---

# reported IC50; entries follow
EXPERIMENTAL_TARGET: Brd4 bromodomain 1 (BRD4(1)) (Homo sapiens, UniProt O60885)
TEST_SUMMARY: Inhibition of tetra-acetylated histone H4 binding to Brd4 bromodomain 1 (TR-FRET)
STUDY_CONDITIONS: tetra-acetylated histone H4 peptide, first bromodomain of Brd4

Solved entries:
SMILES_CODE | EXPERIMENTAL_TARGET | IC50
Cc1noc(C)c1-c1cnc2c(Cl)cn(Cc3ccccc3)c2c1 | Brd4 bromodomain 1 (BRD4(1)) (Homo sapiens, UniProt O60885) | ≤ 0.3 µM
Cc1noc(C)c1-c1cc(N)c2nc(NCc3cccnc3)n(Cc3ccccc3)c2c1 | Brd4 bromodomain 1 (BRD4(1)) (Homo sapiens, UniProt O60885) | ≤ 0.3 µM
Cc1noc(C)c1-c1cc(C#N)c2nc(C)n(Cc3ccccc3)c2c1 | Brd4 bromodomain 1 (BRD4(1)) (Homo sapiens, UniProt O60885) | ≤ 0.3 µM
Cn1nccc1-c1cnc2[nH]c(=O)n(Cc3ccccc3)c2c1 | Brd4 bromodomain 1 (BRD4(1)) (Homo sapiens, UniProt O60885) | 0.3 to 3 µM
Cc1noc(C)c1-c1cc(F)c2nc(C)n(Cc3ccccc3)c2c1 | Brd4 bromodomain 1 (BRD4(1)) (Homo sapiens, UniProt O60885) | ≤ 0.3 µM
Cc1noc(C)c1-c1cc([N+](=O)[O-])c2c(c1)n(Cc1ccccc1)c(=O)n2C | Brd4 bromodomain 1 (BRD4(1)) (Homo sapiens, UniProt O60885) | ≤ 0.3 µM
Cc1noc(C)c1-c1cnc2c(c1)ncn2Cc1ccc(Cl)cc1 | Brd4 bromodomain 1 (BRD4(1)) (Homo sapiens, UniProt O60885) | 0.3 to 3 µM
Cc1noc(C)c1-c1cnc2nc(NCCN(C)C)n(Cc3ccccc3)c2c1 | Brd4 bromodomain 1 (BRD4(1)) (Homo sapiens, UniProt O60885) | ≤ 0.3 µM
Cc1noc(C)c1-c1cnc2nc(NC3COC3)n(Cc3ccccc3)c2c1 | Brd4 bromodomain 1 (BRD4(1)) (Homo sapiens, UniProt O60885) | ≤ 0.3 µM
CCNc1nc2ncc(-c3c(C)noc3C)cc2n1Cc1ccccc1 | Brd4 bromodomain 1 (BRD4(1)) (Homo sapiens, UniProt O60885) | ≤ 0.3 µM

Sample CCOc1nc2c(NC(C)=O)cc(-c3c(C)noc3C)cc2n1Cc1ccccc1 , system: Brd4 bromodomain 1 (BRD4(1)) (Homo sapiens, UniProt O60885). Its IC50 is ≤ 0.3 µM

Sample Cn1nccc1-c1cnc2nc(NC3CCOCC3)n(Cc3ccccc3)c2c1 , system: Brd4 bromodomain 1 (BRD4(1)) (Homo sapiens, UniProt O60885). Its IC50 is 0.3 to 3 µM

Sample Cc1noc(C)c1-c1cnc2nc(C)n(Cc3cccs3)c2c1 , system: Brd4 bromodomain 1 (BRD4(1)) (Homo sapiens, UniProt O60885). Its IC50 is ≤ 0.3 µM

Sample Cc1noc(C)c1-c1ccc2[nH]cc(Nc3cccc(C#N)c3)c2n1 , system: Brd4 bromodomain 1 (BRD4(1)) (Homo sapiens, UniProt O60885). Its IC50 is 3 to 30 µM

Sample Cc1noc(C)c1-c1cc(N)c2[nH]c(=O)n(Cc3ccc(Cl)cc3)c2c1 , system: Brd4 bromodomain 1 (BRD4(1)) (Homo sapiens, UniProt O60885). Its IC50 is ≤ 0.3 µM

Sample Cc1noc(C)c1-c1cnc2c(CN(C)C)cn(Cc3ccccc3)c2c1 , system: Brd4 bromodomain 1 (BRD4(1)) (Homo sapiens, UniProt O60885). Its IC50 is 0.3 to 3 µM

---

EXPERIMENTAL_TARGET: Brd4 bromodomain 1 (BRD4(1)) (Homo sapiens)
TEST_SUMMARY: Inhibition of tetra-acetylated histone H4 binding to Brd4 bromodomain 1 (TR-FRET)
STUDY_CONDITIONS: tetra-acetylated histone H4 peptide, first bromodomain of Brd4
MEASURE: IC50

COMPOUND | IC50
Cc1noc(C)c1-c1cnc2nc(C)n(Cc3ccc(Cl)cc3Cl)c2c1 | ≤ 300 nM
Cc1noc(C)c1-c1cnc2[nH]c(=O)n(Cc3ccc(Cl)cc3)c2c1 | ≤ 300 nM
Cc1noc(C)c1-c1cnc2nc(NC3CCCCC3)n(Cc3ccccc3)c2c1 | ≤ 300 nM
Cc1noc(C)c1-c1cc2c([nH]c1=O)c(C)nn2Cc1ccc(F)cc1 | 3000 to 30000 nM
Cc1noc(C)c1-c1cc(N)c2cnn(Cc3ccccc3)c2c1 | ≤ 300 nM
Cc1noc(C)c1-c1cc([N+](=O)[O-])c2nc(C)n([C@@H](C)c3ccccc3)c2c1 | ≤ 300 nM
Cc1noc(C)c1-c1cnc2cnn(Cc3ccc(F)cc3)c2c1 | ≤ 300 nM
CCNc1nc2c(NC(C)=O)cc(-c3c(C)noc3C)cc2n1Cc1ccccc1 | ≤ 300 nM
Cc1noc(C)c1-c1cnc2cnn(Cc3ccccc3)c2c1 | ≤ 300 nM
CCNc1nc2c([N+](=O)[O-])cc(-c3c(C)noc3C)cc2n1CC1CC1 | ≤ 300 nM

Kindly note the recorded IC50 for Cc1noc(C)c1-c1cc(N)c2[nH]c(=O)n(Cc3ccc(O)cc3)c2c1 , which is ≤ 300 nM

Kindly note the recorded IC50 for Cc1noc(C)c1-c1cc(N)c2nc(N3CCN(C)CC3)n(Cc3ccccc3)c2c1 , which is ≤ 300 nM
